# EXPERIMENT DESCRIPTION: Chemical stability of the compound in 100 mM pH 6 PBS buffer assessed as compound remaining at 10 mM at room temperature after 2 days
# Assay type: physicochemical
# PROTOCOL CONDITIONS: read-out: Stability
READOUT LABEL: remaining at 48 h, 10000 µM (%)

1) COC(=O)[C@H](N)CSCc1cc(B(O)O)ccc1N(CCCl)CCCl : 92

----------
# EXPERIMENT DESCRIPTION: Chemical stability of the compound in 50% DMSO/PBS buffer assessed as compound remaining at pH 6 in presence of GSH after 24 hrs
# Type: physicochemical
# PROTOCOL CONDITIONS: 50% DMSO/PBS buffer with GSH, read-out: Stability
READOUT LABEL: remaining at 24 h (%)

1) COC(=O)[C@H](N)CSCc1cc(B(O)O)ccc1N(CCCl)CCCl : 90

----------
# EXPERIMENT DESCRIPTION: Solubility of the compound in PBS buffer at 10 mM at pH 7.4 by UV-based analysis
# Assay type: physicochemical
Overview of recorded log10 of solubility for various molecules
READOUT LABEL: log10 of solubility (log10 of the value in µM)

1. CC1(C)OB(c2ccc(N(CCCl)CCCl)c([N+](=O)[O-])c2)OC1(C)C : 2.58
2. Cc1cc(N(CCCl)CCCl)ccc1B1OC(C)(C)C(C)(C)O1 : 1.38
3. COC(=O)[C@H](N)CSCc1cc(B(O)O)ccc1N(CCCl)CCCl : 2.36
4. CC1(C)OB(c2ccc(N(CCCl)CCCl)cc2)OC1(C)C : 2.22
5. COc1cc(N(CCCl)CCCl)ccc1B1OC(C)(C)C(C)(C)O1 : 1.70
